measured-target: Acetyl-CoA carboxylase 2 (Homo sapiens, UniProt O00763)
Sequence (O00763 whole entry, looked up): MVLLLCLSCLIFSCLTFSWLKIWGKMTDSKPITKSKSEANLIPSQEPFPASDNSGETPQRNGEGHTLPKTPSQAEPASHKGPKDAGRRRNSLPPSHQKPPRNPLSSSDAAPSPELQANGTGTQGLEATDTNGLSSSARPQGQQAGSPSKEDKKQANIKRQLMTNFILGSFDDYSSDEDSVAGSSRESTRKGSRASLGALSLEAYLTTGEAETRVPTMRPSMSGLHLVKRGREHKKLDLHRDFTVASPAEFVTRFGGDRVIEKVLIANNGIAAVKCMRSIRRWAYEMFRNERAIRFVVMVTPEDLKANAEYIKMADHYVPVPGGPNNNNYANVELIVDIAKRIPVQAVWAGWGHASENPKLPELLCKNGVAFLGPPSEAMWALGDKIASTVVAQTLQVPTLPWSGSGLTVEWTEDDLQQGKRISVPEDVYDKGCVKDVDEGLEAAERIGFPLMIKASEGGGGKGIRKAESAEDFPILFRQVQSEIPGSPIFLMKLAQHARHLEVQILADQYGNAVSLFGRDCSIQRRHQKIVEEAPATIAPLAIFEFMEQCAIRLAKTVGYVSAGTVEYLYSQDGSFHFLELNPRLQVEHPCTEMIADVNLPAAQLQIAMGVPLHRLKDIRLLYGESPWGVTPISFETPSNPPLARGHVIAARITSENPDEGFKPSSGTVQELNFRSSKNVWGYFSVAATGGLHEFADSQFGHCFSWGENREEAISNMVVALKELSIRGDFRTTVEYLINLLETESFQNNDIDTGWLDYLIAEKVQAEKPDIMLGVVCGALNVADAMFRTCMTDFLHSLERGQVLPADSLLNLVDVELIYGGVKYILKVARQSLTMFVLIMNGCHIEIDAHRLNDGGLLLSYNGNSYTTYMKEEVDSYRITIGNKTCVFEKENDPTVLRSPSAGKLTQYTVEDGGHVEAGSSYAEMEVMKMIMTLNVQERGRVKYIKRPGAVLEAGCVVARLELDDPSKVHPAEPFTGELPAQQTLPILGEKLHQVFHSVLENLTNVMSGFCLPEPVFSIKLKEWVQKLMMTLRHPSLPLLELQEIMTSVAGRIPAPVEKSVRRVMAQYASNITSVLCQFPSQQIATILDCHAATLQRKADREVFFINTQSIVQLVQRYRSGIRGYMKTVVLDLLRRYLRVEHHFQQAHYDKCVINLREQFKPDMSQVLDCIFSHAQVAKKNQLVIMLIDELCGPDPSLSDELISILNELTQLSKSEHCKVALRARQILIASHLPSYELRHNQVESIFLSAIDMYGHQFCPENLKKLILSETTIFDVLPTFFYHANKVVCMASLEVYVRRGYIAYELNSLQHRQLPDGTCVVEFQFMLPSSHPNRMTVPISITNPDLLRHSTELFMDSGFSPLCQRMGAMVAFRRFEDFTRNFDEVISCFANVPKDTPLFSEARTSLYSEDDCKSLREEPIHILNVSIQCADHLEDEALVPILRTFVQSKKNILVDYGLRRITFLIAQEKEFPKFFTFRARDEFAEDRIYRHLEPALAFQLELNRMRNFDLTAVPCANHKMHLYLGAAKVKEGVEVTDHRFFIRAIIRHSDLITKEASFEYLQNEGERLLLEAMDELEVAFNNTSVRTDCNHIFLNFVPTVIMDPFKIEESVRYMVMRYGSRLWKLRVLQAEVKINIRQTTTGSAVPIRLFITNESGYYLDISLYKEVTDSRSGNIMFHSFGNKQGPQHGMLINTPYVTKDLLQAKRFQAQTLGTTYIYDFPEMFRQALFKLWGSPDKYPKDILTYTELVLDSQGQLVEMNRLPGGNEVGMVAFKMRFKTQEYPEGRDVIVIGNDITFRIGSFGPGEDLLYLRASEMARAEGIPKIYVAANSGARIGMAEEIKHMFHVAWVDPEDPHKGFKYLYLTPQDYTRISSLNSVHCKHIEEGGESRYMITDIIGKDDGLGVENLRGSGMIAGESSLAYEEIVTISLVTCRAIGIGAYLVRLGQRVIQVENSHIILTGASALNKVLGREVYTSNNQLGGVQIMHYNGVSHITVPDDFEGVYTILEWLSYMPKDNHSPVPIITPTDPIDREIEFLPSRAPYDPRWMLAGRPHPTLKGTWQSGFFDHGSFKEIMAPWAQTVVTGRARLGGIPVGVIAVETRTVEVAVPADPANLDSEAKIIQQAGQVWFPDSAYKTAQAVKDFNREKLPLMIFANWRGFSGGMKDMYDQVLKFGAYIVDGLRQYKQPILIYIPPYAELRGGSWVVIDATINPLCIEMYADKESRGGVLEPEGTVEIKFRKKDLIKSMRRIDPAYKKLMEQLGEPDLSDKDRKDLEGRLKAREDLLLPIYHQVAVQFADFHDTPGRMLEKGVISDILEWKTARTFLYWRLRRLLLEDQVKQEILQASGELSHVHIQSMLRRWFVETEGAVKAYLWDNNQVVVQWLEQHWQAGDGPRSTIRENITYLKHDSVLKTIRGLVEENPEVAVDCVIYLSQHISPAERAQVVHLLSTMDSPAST
experiment: Inhibition of full length recombinant C-terminal His-tagged human ACC2 expressed in baculovirus infected sf9 cells at 30 uM using acetyl-CoA as substrate after 90 mins by ATP consumption assay relative to N-(4-(4-(4-isopropoxyphenoxy)phenyl)but-3-yn-2-yl)acetamide
Entries are sorted into classes by Imax as follows: zone 1 (below 40%), zone 2 (40% to below 80%), zone 3 (80% or more)

Worked set:
{"columns": ["compound", "class-label"],
 "data": [
  ["CC(=O)NC(C)c1nc(-c2ccc(Oc3ccc(Oc4ccccc4)cc3)cc2)no1 (racemic)", "zone 2"],
  ["CCCCCCOc1ccc(Oc2ccc(-c3noc(C(C)NC(C)=O)n3)cc2)cc1 (stereo not given)", "zone 3"],
  ["CC(=O)NC(C)c1nc(-c2ccc(Oc3ccc(O)cc3)cc2)no1 (stereo not given)", "zone 1"],
  ["CCOc1ccc(Oc2ccc(-c3noc(C(C)NC(C)=O)n3)cc2)cc1 (stereo not given)", "zone 1"],
  ["CC(=O)NCc1nc(-c2ccc(Oc3ccc(OC(C)C)cc3)cc2)no1", "zone 3"]
]}

Bin? CC(=O)N[C@H](C)c1nc(-c2ccc(Oc3ccccc3)cc2)no1 zone 1

Bin? CC(=O)N[C@@H](C)c1nc(-c2ccc(Oc3ccccc3)cc2)no1 zone 2

Bin? CCCOc1ccc(Oc2ccc(-c3noc(C(C)NC(C)=O)n3)cc2)cc1 (stereo not given) zone 3

Bin? CC(=O)NCc1nc(-c2ccc(Oc3ccc(O)cc3)cc2)no1 zone 1

Bin? COc1ccc(Oc2ccc(-c3noc(C(C)NC(C)=O)n3)cc2)cc1 (stereo not given) zone 1
